test system: OVCAR-3 ovarian; experiment: NCI tumour cell line growth inhibition, 48 h
Recorded TGI for the following compounds
Return type: number; implicit unit µM.

Below, each entry is followed by its recorded TGI result.
[
  {
    "compound": "CCCCCCCCCCC(O)CCCCCCC(=O)O (stereo not drawn)",
    "unit.name": "µM",
    "TGI": 45.3
  },
  {
    "compound": "O=C(Nc1cccc(Cl)c1)Nc1nccs1",
    "unit.name": "µM",
    "TGI": 53.6
  },
  {
    "compound": "Cc1cc(Cc2cc(Cc3cc(C)cc(C(C)(C)C)c3O)c(C)cc2C)c(O)c(C(C)(C)C)c1",
    "unit.name": "µM",
    "TGI": 32.9
  }
]

## Task If you can, please state the reported TGI value of C=C1C(=O)O[C@H]2[C@H]1CC/C(COC(=O)CCCC(=O)OC/C1=C/CC[C@@]3(C)O[C@H]3[C@H]3OC(=O)C(=C)[C@@H]3CC1)=C\CC[C@@]1(C)O[C@@H]21 .
## Result 1.52

## Task Queued: C[C@]12CCC(=O)CC1CC[C@@H]1C2CC[C@@]2(C)C1CC[C@@H]2OC(=O)CC[Se][Se]CCC(=O)O[C@H]1CCC2[C@@H]3CCC4CC(=O)CC[C@]4(C)C3CC[C@@]21C (stereo partly drawn)
## Result 6.84

## Task Queued: C(=C1c2ccccc2-c2ccccc21)c1ccncc1
## Result 6.75

## Task Queued: CCC(=O)OC1CCC2C3CCC(=O)OC3C(C)(CCC(=O)O)CC12C (stereo not drawn)
## Result 10.5

## Task Queued: COc1cc2c(oc(=O)c3cc(C)cc(OC)c32)c2c(C3OC(C)C(O)C(C)(O)C3O)ccc(O)c12 (stereo not drawn)
## Result 2.51

## Task Queued: CC1=C2C(=O)c3ccccc3C(=O)[C@H]2C[C@@H](N2CCCC2=O)O1
## Result 63.9

## Task Queued: OCc1ccc(N(Cc2ccc(F)cc2)CC2CC2)cc1Cl
## Result 4.94

* * *

test system: HL-60(TB) leukemia; assay: NCI tumour cell line growth inhibition, 48 h
recorded.endpoint: TGI

Below, each entry is followed by its recorded TGI result.
[
  {
    "compound": "CC(=O)N1CCC(Nc2cc(C(=O)NC[C@H](O)CN3CCc4ccccc4C3)ncn2)CC1",
    "TGI": "> 100 µM"
  },
  {
    "compound": "COC(=O)C1=CN(CC2=CC(=O)C(C)=CC2=O)C=C(C(=O)OC)C1c1cc(OC)ccc1OC",
    "TGI": "99.4 µM"
  },
  {
    "compound": "c1ccc2c(CC3NCCN3)cccc2c1",
    "TGI": "> 100 µM"
  }
]

## Task If you can, please state the reported TGI value of O=C(Nc1ccccc1)c1cc(S(=O)(=O)n2cc[nH]c2=O)c(S)cc1Cl .
## Result > 100 µM

## Task Queued: Cc1ccc(NC2=N[C@]34CC(=O)CC[C@]3(C)[C@H]3CC[C@]5(C)C(=O)CC[C@H]5[C@@H]3C[C@@H]4S2)c(C)c1
## Result 6.03 µM

## Task Queued: CC1(C)NC(C)(C)/C(=N\O)C(=NO)/C1=N/O
## Result > 100 µM

## Task Queued: O=S(=O)(Nc1ccc(Cl)cc1)c1ccc(-c2cnc(C3CC3)o2)cc1
## Result 8.58 µM

## Task Queued: Cc1cc(C)n(C(=O)CSc2nc3ccc(I)cc3c(=O)n2Cc2ccccc2)n1
## Result > 100 µM

## Task Queued: Cn1cc(-c2ccc(-c3cn(C)c4ccc(Cl)cc34)[nH]2)c2cc(Cl)ccc21
## Result 2.62 µM

## Task Queued: Cc1ccccc1N(CC(=O)O)S(=O)(=O)c1ccccc1
## Result > 100 µM

## Task Queued: CCCCCCCC(=O)SCC/C=C/[C@@H]1CC(=O)NCc2cccc(n2)CN(Cc2ccc3ccccc3c2)CC(=O)N[C@@H](C(C)C)C(=O)O1
## Result > 100 µM

## Task Queued: CCOC(=O)/C(C#N)=C/c1ccc(SCc2ccco2)c([N+](=O)[O-])c1
## Result > 100 µM

* * *

test system: SF-539 CNS; test: NCI tumour cell line growth inhibition, 48 h; in the data active = GI50 below about 0.43 µM; inactive = the rest
Select the correct class. Options are active, inactive and nothing else.

Examples from the recorded data:
[
  {
    "compound": "CCC(=O)OC1CCC2C3CCC(=O)OC3C(C)(CCC(=O)O)CC12C (stereo not given)",
    "measured.on": "SF-539 CNS",
    "assigned.category": "inactive"
  },
  {
    "compound": "Cc1nn(CCO)c(C)c1N=[N+]([O-])c1c(C)nn(CCO)c1C",
    "measured.on": "SF-539 CNS",
    "assigned.category": "inactive"
  },
  {
    "compound": "C=C1C(=O)O[C@H]2[C@H]1CC/C(COC(=O)CCSSCCC(=O)OC/C1=C/CC[C@@]3(C)O[C@H]3[C@H]3OC(=O)C(=C)[C@@H]3CC1)=C\\CC[C@@]1(C)O[C@@H]21",
    "measured.on": "SF-539 CNS",
    "assigned.category": "inactive"
  },
  {
    "compound": "O=C(Nc1cccc(Cl)c1)Nc1nccs1",
    "measured.on": "SF-539 CNS",
    "assigned.category": "inactive"
  }
]

Next item in the queue.
## Task Check the results log: what was the call for N#CC1=C(N)Oc2c(ccc3ccccc23)C1c1cccs1 (stereo not given) ?
## Result active

* * *

tested on: OVCAR-3 ovarian; assay: NCI tumour cell line growth inhibition, 48 h
Recorded TGI for the following compounds

[
  {
    "compound": "S=C1N=C2C(=N1)n1c3c(c4ccccc41)CCCC23 (centres undefined)",
    "value": "> 100 µM"
  },
  {
    "compound": "CCCNC(=S)N=Nc1c(O)[nH]c2ccccc12",
    "value": "> 100 µM"
  },
  {
    "compound": "c1ccc2c(c1)CCN2CCN1CCc2ccccc21",
    "value": "> 10 µM"
  }
]

In the following, a different compound is considered.
## Task If you can, please state the reported TGI value of COc1cc(/C=C2\N=C(c3ccccc3)N(c3nc4ccc(Sc5ccccc5)cc4[nH]3)C2=O)ccc1O .
## Result > 100 µM

* * *

tested on: SK-OV-3 ovarian; test: NCI tumour cell line growth inhibition, 48 h; in the data active = GI50 below about 0.43 µM; inactive = the rest
Select the correct class. Options are active, inactive and nothing else.

Examples from the recorded data:
[
  {
    "compound": "COc1ccc2c(c1)NC(=O)CN2c1nc(NC2CC2)nc2ccccc12",
    "assigned.category": "active"
  },
  {
    "compound": "N#Cc1c(Br)n(C2OC(CO)C(O)C2O)c2ncn3ccnc3c12 (centres undefined)",
    "assigned.category": "inactive"
  },
  {
    "compound": "ClCCn1cnc2c(SCc3ccccc3Cl)ncnc21",
    "assigned.category": "inactive"
  },
  {
    "compound": "CCC(=O)OC1CCC2C3CCC(=O)OC3C(C)(CCC(=O)O)CC12C (centres undefined)",
    "assigned.category": "inactive"
  },
  {
    "compound": "O=c1cc(NCC(O)CN2CCOCC2)n(Cc2ccccc2)c(=O)n1Cc1ccccc1 (centres undefined)",
    "assigned.category": "inactive"
  }
]

## Task Check the results log: what was the call for N#CC1=C(N)Oc2c(ccc3ccccc23)C1c1cccs1 (centres undefined) ?
## Result active

## Task Queued: Cc1ccc(Cl)cc1-c1nc(N)nc(Nc2ccc(Br)cc2)n1
## Result active

## Task Queued: C[C@]12CCC(=O)CC1CC[C@@H]1C2CC[C@@]2(C)C1CC[C@@H]2OC(=O)CC[Se][Se]CCC(=O)O[C@H]1CCC2[C@@H]3CCC4CC(=O)CC[C@]4(C)C3CC[C@@]21C (some centres undefined)
## Result inactive

## Task Queued: O=C1N[C@@H]2[C@@H](O)[C@@H](O)[C@H](O)C[C@H]2c2cc3c(c(O)c21)OCO3
## Result active

* * *

test system: IGROV1 ovarian; assay: NCI tumour cell line growth inhibition, 48 h
Recorded TGI for the following compounds

[
  {
    "compound": "CCOP1(=O)C=CC(Cl)=C(C)C1 (centres undefined)",
    "value": "55.1 µM"
  },
  {
    "compound": "COc1cc([C@@H]2C3C(=O)c4ccccc4C3[C@@H](c3cc(OC)c(OC)c(OC)c3)C23Cc2ccccc2C3=O)cc(OC)c1OC (some centres undefined)",
    "value": "> 100 µM"
  },
  {
    "compound": "CC(=O)c1c2c(cc3c1CC1(C3)Cc3cc4c(c(C(=O)O)c3C1)CCCC4)CCCC2 (centres undefined) (tested in a mixture with another compound)",
    "value": "> 100 µM"
  }
]

## Task Give IGROV1 ovarian TGI for CC1CC(=O)C2CC(CO)=CCCC2C1(C)CC/C(=C/CO)CO (centres undefined)
## Result > 100 µM

## Task Queued: O=C1N[C@@H]2[C@@H](O)[C@@H](O)[C@H](O)C[C@H]2c2cc3c(c(O)c21)OCO3
## Result 1.47 µM

## Task Queued: Nc1nc(N)c2c(Cl)c(CNc3ccc(C(=O)NC(CC(=O)O)C(=O)O)cc3)ccc2n1 (centres undefined)
## Result 0.415 µM

## Task Queued: Cc1ccccc1N(CC(=O)O)S(=O)(=O)c1ccccc1
## Result > 100 µM

## Task Queued: CN(C(=O)CCC(=O)O)c1ccccc1C(=O)O
## Result > 100 µM

## Task Queued: O=C(CCc1ccc(O)c(O)c1)NCCc1cc(O)cc(OCc2ccccc2)c1
## Result > 100 µM
